B1: tRNA (parent)
chain: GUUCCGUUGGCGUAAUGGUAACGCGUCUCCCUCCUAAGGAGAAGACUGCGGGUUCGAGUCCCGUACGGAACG

# Variants of: B1
# Method summary: yeast fitness relative to wild type (ratio to wild type); higher = fitter; tRNA-Arg(CCU), competitive growth, 37 C, YPD
Variants at the floor of the assay were thinned out.
In this section we review reported yeast fitness values for a set of variants.
Property measured: yeast fitness

mutation_id="G6C G10A" property_measured="yeast fitness" result=0.666
mutation_id="G23A A70G" property_measured="yeast fitness" result=0.689
mutation_id="G17A C34A C49U G52U" property_measured="yeast fitness" result="≤ 0.5"
mutation_id="U16A G38C C61U U64C" property_measured="yeast fitness" result="≤ 0.5"
mutation_id="A15C C27U C31A" property_measured="yeast fitness" result="≤ 0.5"
mutation_id="C30U C34G G38C A65C" property_measured="yeast fitness" result=0.537
mutation_id="U13A C66U G68C" property_measured="yeast fitness" result=0.51
mutation_id="U2C A43G A57C A65U" property_measured="yeast fitness" result="≤ 0.5"
mutation_id="C5A U28G C66U" property_measured="yeast fitness" result="≤ 0.5"
mutation_id="U3G C46U U59A" property_measured="yeast fitness" result=0.562
mutation_id="U8C C34G" property_measured="yeast fitness" result=0.574
mutation_id="A15C G17C A36C G38C G48A" property_measured="yeast fitness" result="≤ 0.5"
mutation_id=U3A property_measured="yeast fitness" result=1
mutation_id="U13A C22A C46U" property_measured="yeast fitness" result=0.633
mutation_id="A43U C46G U54A G63A" property_measured="yeast fitness" result=0.726
mutation_id="C5G G9C A20U A21G C24G C27G G68A" property_measured="yeast fitness" result="≤ 0.5"
mutation_id="U13A U28A G63A G67A" property_measured="yeast fitness" result="≤ 0.5"
mutation_id="C4U U13C G25A C60A C62U" property_measured="yeast fitness" result="≤ 0.5"
mutation_id="C4U G23A A40C U54A U59A" property_measured="yeast fitness" result="≤ 0.5"
mutation_id="G12C U32G C49G C55A" property_measured="yeast fitness" result="≤ 0.5"
mutation_id="U8C A15C C31A" property_measured="yeast fitness" result="≤ 0.5"
mutation_id="G9C C46G C61G A65C" property_measured="yeast fitness" result="≤ 0.5"
mutation_id="A37C U47A G58A" property_measured="yeast fitness" result="≤ 0.5"
mutation_id="U2C U7A C34U G44C" property_measured="yeast fitness" result="≤ 0.5"
mutation_id="G12A A15U C24G G63C" property_measured="yeast fitness" result="≤ 0.5"
mutation_id="U3A G44A" property_measured="yeast fitness" result=0.807
mutation_id="U13C C29A G51C G63A" property_measured="yeast fitness" result="≤ 0.5"
mutation_id="C24G A36G C61A" property_measured="yeast fitness" result="≤ 0.5"
mutation_id="A14G C22G A70U" property_measured="yeast fitness" result=0.774
mutation_id="A21U U26C C60U" property_measured="yeast fitness" result="≤ 0.5"
mutation_id="G41C C60U U64G" property_measured="yeast fitness" result="≤ 0.5"
mutation_id="C5U C27G G38A" property_measured="yeast fitness" result=0.515
mutation_id="U13A G23C C49A U64G" property_measured="yeast fitness" result="≤ 0.5"
mutation_id="A14C C49U U64A" property_measured="yeast fitness" result=0.556
mutation_id=C11U property_measured="yeast fitness" result=1.01
mutation_id="C24A C29U C61G" property_measured="yeast fitness" result="≤ 0.5"
mutation_id="C11U A36C C46G" property_measured="yeast fitness" result="≤ 0.5"
mutation_id="G6A U19C C30G A69C" property_measured="yeast fitness" result="≤ 0.5"
mutation_id="U2G C60U" property_measured="yeast fitness" result=0.782
mutation_id="C4U U7A G50C" property_measured="yeast fitness" result="≤ 0.5"
mutation_id="C24U A45C C49G A69C" property_measured="yeast fitness" result="≤ 0.5"
mutation_id="C11G G18U C22U G39C C49G A57U A69U" property_measured="yeast fitness" result="≤ 0.5"
mutation_id="A21U C24U A37C" property_measured="yeast fitness" result=0.683
mutation_id="A20G C31U A69C" property_measured="yeast fitness" result=0.833
mutation_id="U2G C46G G52A" property_measured="yeast fitness" result="≤ 0.5"
mutation_id="C11U C22G C34A C49U" property_measured="yeast fitness" result="≤ 0.5"

Entry source: the RNAGym collection of RNA variant scans (doi:10.1126/science.aae0568)
